Target: T1, Streptavidin (Pierce, 21125) (UniProt P22629 37-163, limits assumed)
T1 construct: Non-related control antigen; also called SA
T1 sequence (P22629 37-163 limits assumed): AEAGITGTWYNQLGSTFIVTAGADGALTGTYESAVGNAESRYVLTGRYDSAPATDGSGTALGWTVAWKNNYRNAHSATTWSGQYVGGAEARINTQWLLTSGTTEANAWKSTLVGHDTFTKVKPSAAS
Test: phage ELISA
Reported Endpoint: binding result

phage monoclone #10 (scFv, also called scFv10) scFv: QSVVTQPPSVSGAPGQRVTISCTGSSSNIGAGYDVHWYQQLPGTAPKLLIYGNINRPSGVPDRFSGSKSGTSASLAITGLQAEDEADYYCGTWDNSLSAHYVFGTGTKVTVLGSRGGGGSGGGGSGGGGSLEEVQLLESGGGLVKPGGSLRLSCAASGFTFNNYTMNWVRQAPGKGLEWVSSISSSSSYIYYADSVKGRFTISRDNAKNSLFLQMNSLRGEDTAVYYCARYFSGSAGDYWGQGTLVTVSS ... no binding
phage monoclone #6 (scFv, also called scFv6) scFv: NFMLTQPHSVSESPGKTVTISCTGNSGSIARNYVQWYQQRPGSAPTMLIYEDNRRPSGVPDRFSGSIDSSSNSASLTISGLKTEDEADYYCQSYDDNTSWVFGGGTKLTVLGSRGGGGSGGGGSGGGGSLEMAEVQLVQSGAEVKKPGSSVKVSCKASGGTFSSNAITWVRQAPGQGLEWMGGIIPMFGTTDYAQKFQGRVTMTADESTSTAYMELRSLRSEDTAVYYCARDGGGRHPYYYYGMDVWGQGTTVTVSS ... no binding
phage monoclone #32 (scFv, also called scFv32) scFv: QVQLVESGGGLVKPGGSLRLSCAASGFTFSSYSMNWVRQAPGKGLEWVSSISSSSSYIYYADSVKGRFTISRDNAKNSLYLQMNSLRAEDTAVYYCARGNPWYGVDYWGQGTLVTVSSTSGGGGSGGGGSGGGGSELQSVLTQPPSVSAAPGQKVTISCSGSNSNIGNNYVSWYQQLPGTAPKRLIYDNNKRPSGIPDRFSGSKSGTSATLGITGLQTGDEADYYCGIWDSSLDAYVFGTGTKVTVLG ... no binding
